target_or_system: recombinant human cGAS (aa147-522) (Homo sapiens)
Construct: recombinant human cGAS (aa147-522); His6-SUMO (cleaved yes); made in house; host or cells: E. coli BL21/pLys
Sequence (Q8N884 147-522): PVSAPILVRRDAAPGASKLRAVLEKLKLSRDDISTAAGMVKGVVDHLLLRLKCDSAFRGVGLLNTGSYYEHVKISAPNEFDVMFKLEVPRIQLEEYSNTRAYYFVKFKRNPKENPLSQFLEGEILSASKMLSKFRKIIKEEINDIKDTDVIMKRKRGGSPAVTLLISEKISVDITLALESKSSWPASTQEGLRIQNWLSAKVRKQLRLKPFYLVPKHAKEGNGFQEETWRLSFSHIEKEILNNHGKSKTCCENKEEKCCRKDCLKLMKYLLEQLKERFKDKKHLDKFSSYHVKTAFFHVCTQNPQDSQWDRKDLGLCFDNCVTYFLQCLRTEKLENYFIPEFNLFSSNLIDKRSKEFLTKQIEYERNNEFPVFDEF
test_method_notes: In vitro inhibition assay of cGAS activity (ATP consumption, KinaseGlo Max)
Format: biochemical
condition_description: Table 2, read-out: cGAS Inhibition Results IC50
quantity_name: IC50

Solved cases (3 shown):
c1ccc2c(-n3ccnc3)ccnc2c1 | > 30 µM
Oc1ccc(-c2cc(-n3ccnc3)c3ccc(Cl)cc3n2)cn1 | > 30 µM
O=C(O)c1cc(-c2cc(-n3ccnc3)c3ccc(Cl)cc3n2)ccc1OC(F)(F)F | 2 to 30 µM

Sure, the documented IC50 for "COC(=O)CCS(=O)(=O)NC[C@@H]1CCCN1c1cc(-n2ccnc2)c2ccc(Cl)c(Cl)c2n1" is 2 to 30 µM

Value of IC50 reported for the molecule "O=C(O)[C@@H]1C[C@@H](C2CCCCC2)CN1c1cc(-c2cn[nH]c2)c2ccc(Cl)c(Cl)c2n1" is 2 to 30 µM

Note to self: IC50 recorded for "O=C1CN(c2cc(Cl)nc3c(Cl)c(Cl)ccc23)CCN1" was > 30 µM

Entry "O=C(O)[C@@H]1[C@@H](O)CCN1c1cc(-n2ccnc2)c2ccc(Cl)c(Cl)c2n1" ; IC50 = < 2 µM

Short answer for "Brc1ccc2c(-n3ccnc3)cc(-c3cccnc3)nc2c1" : IC50 was 2 to 30 µM

Noted for O=C1NC(=O)C(CCCc2cc(-c3cn[nH]c3)c3ccc(Cl)c(Cl)c3n2)S1 (centres unmarked) : its IC50 reads 2 to 30 µM

Briefly, IC50 measured for "OC[C@@H](Nc1cc(-n2ccnc2)c2ccc(Cl)c(Cl)c2n1)c1ccccc1" : 2 to 30 µM

Lookup result for "COC(=O)[C@@H]1C[C@@H](O)CN1c1cc(-c2cn[nH]c2)c2ccc(Cl)c(Cl)c2n1" ; measured IC50: 2 to 30 µM

# IC50 of "O=C(O)c1cccc(-c2cc(-c3ccn[nH]3)c3ccc(Cl)cc3n2)c1" = > 30 µM

Lab note: "NC(=O)Nc1cccc(-c2cc(-n3ccnc3)c3ccc(Cl)cc3n2)c1" gave IC50 of 2 to 30 µM

For Cc1cc(N2CCCC(S(N)(=O)=O)C2)c2ccc(Cl)c(Cl)c2n1 (centres unmarked) the molecule record lists IC50 as > 30 µM

====

target_or_system: recombinant human cGAS (aa147-522) (Homo sapiens)
Construct: recombinant human cGAS (aa147-522); His6-SUMO (cleaved yes); made in house; host or cells: E. coli BL21/pLys
test_method_notes: In vitro inhibition assay of cGAS activity (ATP consumption, KinaseGlo Max)
Assay type: biochemical
condition_description: Table 3, read-out: cGAS Inhibition Results IC50
quantity_name: IC50

Completed entries (count: 2):
COC(=O)[C@@H]1[C@@H]2[C@H](CN1c1cc(-n3ccnc3)c3ccc(Cl)c(Cl)c3n1)C2(C)C [I-471] | 2000 to 30000 nM
COCCS(=O)(=O)NCCN(C)c1cc(-n2ccnc2)c2ccc(Cl)c(Cl)c2n1 [I-610] | < 2000 nM

Notebook: CC(C)N(CCCOc1ccc(Cl)cc1C(=O)O)c1cc(-n2ccnc2)c2ccc(Cl)c(Cl)c2n1 [I-848] , IC50 read as 2000 to 30000 nM

Field IC50 (entry CC(C)(C)OC(=O)C[C@@H]1CCCN1c1cc(-n2ccnc2)c2ccc(Cl)c(Cl)c2n1 [I-573] ) reads 2000 to 30000 nM
